# Test system: SNB-19 CNS
# run description: NCI tumour cell line growth inhibition, 48 h
recorded metric: TGI (µM)
Kindly provide the numeric value in µM only, without the unit symbol.

Use these answered entries as a reference point.
1. CC(O[Si](c1ccccc1)(c1ccccc1)C(C)(C)C)[C@H](NC(=O)OC(C)(C)C)C(=O)O[Si](c1ccccc1)(c1ccccc1)C(C)(C)C (stereo not given in full) | 29.8
2. O=C(NNC(=S)Nc1ccc(Cl)cc1)c1cc(-c2ccccc2)nc2ccccc12 | 21.7
3. O=C(NCCOCCOCCNc1cccc2c1C(=O)N(C1CCCNC1=O)C2=O)c1cc2c(o1)C(=O)c1ccccc1C2=O (stereo not given) | 9.84
4. CCCCCCCCCCCC(=O)CC(=O)c1c(O)cccc1O | 36.8

INPUT: For the compound OCCCCCNc1c2ccccc2nc2ccccc12 , what TGI is on record?
OUTPUT: 10.8

INPUT: For the compound CN(C)CCC(=O)N1C/C(=C/c2ccccc2)C(=O)/C(=C\c2ccccc2)C1 , what TGI is on record?
OUTPUT: 7.62

INPUT: For the compound CN(C)CCNc1cc(-c2ccccc2)nc2ccccc12 , what TGI is on record?
OUTPUT: 49.7

INPUT: For the compound COc1ccc2c(c1)c(-c1nc(-c3cn(C)c4ncccc34)cs1)cn2CCCN1CCCCC1 , what TGI is on record?
OUTPUT: 3.52

###

Below, each of the compounds is paired with its reported TGI value.
# Tested on: UO-31 renal
# run description: NCI tumour cell line growth inhibition, 48 h

1. COC(=O)c1cc2c3ccccc3[nH]c2c2ncccc12 | > 100 µM

INPUT: For the compound COc1ccc2ccc3c(c2c1)CN1CCc2cc(OC)c(OC)cc2C1C3 (stereo not given) , what TGI is on record?
OUTPUT: > 100 µM

INPUT: For the compound OCCC1(O)CCC(O)CC1 (stereo not given) , what TGI is on record?
OUTPUT: > 100 µM

###

# Tested on: UO-31 renal
# run description: NCI tumour cell line growth inhibition, 48 h; in the data active = GI50 below about 0.43 µM; inactive = the rest
Answer with one of the outcomes active, inactive

1) COc1cc(/C=C/c2cc(/C=C/c3ccc(O)c(OC)c3)n(-c3ccccc3)n2)ccc1O | active
2) CC1=C(C(=O)Nc2ccc3[nH]ncc3c2)C(c2ccc3ccccc3c2)CC(=O)N1 (stereo not drawn) | inactive

INPUT: Returns: the outcome recorded for Cc1ccc(-c2c3c([nH]c(=O)c2C#N)-c2cc(F)ccc2OC3)cc1 in this assay.
OUTPUT: inactive

###

# Tested on: A498 renal
# run description: NCI tumour cell line growth inhibition, 48 h
recorded metric: TGI (µM)
Kindly provide the numeric value in µM only, without the unit symbol.

1) COc1ccc2c(c1)c(-c1nc(-c3cn(C)c4ncccc34)cs1)cn2CCCN1CCCCC1 | 6.22

Now take the following compound into account.
INPUT: What reported TGI corresponds to CC12CC[C@@H](C(C)(C)O)C1[C@@H](O)CC1(C)C2CCC2[C@@]3(C)CC[C@H](O)C(C)(C)C3C(O)C[C@]21C (stereo not given in full) on A498 renal?
OUTPUT: 32.3

###

Below, each of the compounds is paired with its reported TGI value.
# Test system: MCF7 breast
# run description: NCI tumour cell line growth inhibition, 48 h
Kindly provide the numeric value in µM only, without the unit symbol.

1. COc1ccc2c(c1)c(-c1nc(-c3cn(C)c4ncccc34)cs1)cn2CCCN1CCCCC1 | 3.32
2. C=C1CC(COc2cc(=O)oc3ccccc23)(c2ccccc2)OC1=O (stereo not given) | 2.14
3. CC(CN1c2ccccc2Sc2ccccc21)N(C)C (stereo not given) | 42.8

INPUT: For the compound O=C(CN1CCOCC1)Nc1ccc(Cn2nnc3c2C(=O)c2nnn(Cc4ccc(NC(=O)CN5CCOCC5)cc4)c2C3=O)cc1 , what TGI is on record?
OUTPUT: 0.484

INPUT: For the compound CCCc1cc(=O)c2c(C)c3[nH]c4ccc(Cl)cc4c3c(C)c2[nH]1 , what TGI is on record?
OUTPUT: 3.37
